# Test system: lambsquarters (Chenopodium album, CHEAL)
# PROTOCOL DESCRIPTION: Post-emerge test, greenhouse herbicide activity screening
# Type: in vivo
# REPORTED CONDITIONS: Rate 250 g ai/ha; rating scale 0-100 (0 no damage, 100 complete death); 14 days after application
# key: entry, value: Post-emerge Herbicidal Activity, phytotoxicity rating CHEAL
MEASUREMENT KIND: Post-emerge Herbicidal Activity, phytotoxicity rating CHEAL

[
  {
    "MOLECULE": "CCCCCOC(=O)C(Cl)Cc1c(OC)c(Cl)cc(F)c1-n1c(=O)cc(C(F)(F)F)n(C)c1=O (single isomer, unassigned) [14-11]",
    "TARGET SYSTEM": "lambsquarters (Chenopodium album, CHEAL)",
    "ASSAY RESULT": 100
  },
  {
    "MOLECULE": "COc1c(Cl)cc(F)c(-n2c(=O)cc(C(F)(F)F)n(C)c2=O)c1CC(Cl)C(=O)OCC(C)C (single isomer, unassigned) [14-15]",
    "TARGET SYSTEM": "lambsquarters (Chenopodium album, CHEAL)",
    "ASSAY RESULT": 100
  },
  {
    "MOLECULE": "COc1c(Cl)cc(F)c(-n2c(=O)cc(C(F)(F)F)n(C)c2=O)c1CC(Cl)C(=O)OCCOc1ccccc1 (single isomer, unassigned) [14-27]",
    "TARGET SYSTEM": "lambsquarters (Chenopodium album, CHEAL)",
    "ASSAY RESULT": 100
  },
  {
    "MOLECULE": "COc1c(Cl)cc(F)c(-n2c(=O)cc(C(F)(F)F)n(C)c2=O)c1CC(Cl)C(=O)OCC(C)C (single isomer, unassigned) [14-14]",
    "TARGET SYSTEM": "lambsquarters (Chenopodium album, CHEAL)",
    "ASSAY RESULT": 90
  }
]

---

# key: entry, value: phytotoxicity rating RICE (crop damage)
# Test system: upland rice (Oryza sp., var. Tebonnet, RICE)
# PROTOCOL DESCRIPTION: Pre-emerge test, crop safety
# Type: in vivo
# REPORTED CONDITIONS: pre-emerge, 250 g ai/ha, 14 days after application, scale 0-100
MEASUREMENT KIND: phytotoxicity rating RICE (crop damage)

[
  {
    "COMPOUND": "COc1c(Cl)cc(F)c(-n2c(=O)cc(C(F)(F)F)n(C)c2=O)c1NC(=O)c1ccc2cccc(F)c2c1 [2-161]",
    "TARGET SYSTEM": "upland rice (Oryza sp., var. Tebonnet, RICE)",
    "MEASUREMENT KIND": "phytotoxicity rating RICE (crop damage)",
    "ASSAY RESULT": 40
  },
  {
    "COMPOUND": "Cn1c(C(F)(F)F)cc(=O)n(-c2ccc(C#N)cc2NC(=O)c2ccc3ccccc3c2)c1=O [2-140]",
    "TARGET SYSTEM": "upland rice (Oryza sp., var. Tebonnet, RICE)",
    "MEASUREMENT KIND": "phytotoxicity rating RICE (crop damage)",
    "ASSAY RESULT": 85
  },
  {
    "COMPOUND": "C=Cc1ccc(C(=O)Nc2c(OC)c(Br)cc(F)c2-n2c(=O)cc(C(F)(F)F)n(C)c2=O)cc1 [2-182]",
    "TARGET SYSTEM": "upland rice (Oryza sp., var. Tebonnet, RICE)",
    "MEASUREMENT KIND": "phytotoxicity rating RICE (crop damage)",
    "ASSAY RESULT": 70
  },
  {
    "COMPOUND": "COc1c(Cl)cc(F)c(-n2c(=O)cc(C(F)(F)F)n(C)c2=O)c1NC(=O)C(C#N)=Cc1ccccc1 [2-136]",
    "TARGET SYSTEM": "upland rice (Oryza sp., var. Tebonnet, RICE)",
    "MEASUREMENT KIND": "phytotoxicity rating RICE (crop damage)",
    "ASSAY RESULT": 10
  }
]
